Reference source: PubChem BioAssay (NCI)

System: NCI/ADR-RES ovarian
protocol_details: NCI-60 one-dose screen, 48 h
measurement_conditions: 10 µM unless noted
This is part of a sample that, as a whole, favours compounds with a hit. Of some 83,000 tested, about 20% had one in any assay. Calls of active or inactive are those of the source. How the source made its calls: active means growth percent below 10; inactive means the rest. Where a SMILES comes first, the peptide text is derived from it. The star is where a group is joined. Trt = c1ccc(C(c2ccccc2)(c2ccccc2)*)cc1; Cbz = O=C(OCc1ccccc1)*
Give your call using only these classes: active, inactive

# molecule, assigned_label
data = [
    ("Cc1ccc(C(=Nc2ccccc2)N=P(c2ccccc2)(c2ccccc2)c2ccccc2)cc1", "active"),
]

Challenge: What was the test verdict on c1ccc2c(c1)Nc1cc3ccccc3cc1N2 ?
Response given: inactive

Challenge: What was the test verdict on C/C=C1\SC(=S)NC1=O ?
Response given: inactive

Challenge: What was the test verdict on NC(=S)N/N=C\c1nccc2c(C(F)(F)C(F)(F)C(F)(F)F)cccc12 ?
Response given: active

Challenge: What was the test verdict on Oc1c(Cl)c2ccccc2c2ccccc12 ?
Response given: inactive

Challenge: What was the test verdict on Cc1ccc2c(ccc3c[n+]4c5ccccc5ccc4n32)c1 ?
Response given: inactive

Challenge: What was the test verdict on CN(Cc1cnc2nc(N)nc(N)c2n1)c1ccc(C(=O)NC(CCC(=O)O)C(=O)O)cc1 (stereo unspecified) ?
Response given: inactive

Challenge: What was the test verdict on Cc1ccnc2c1ccc1c(C)ccnc12 ?
Response given: active

Challenge: What was the test verdict on CCCCCCCCCCCCCCCCN(CC)CC ?
Response given: active

Challenge: What was the test verdict on COC(=O)C(CSC(c1ccccc1)(c1ccccc1)c1ccccc1)NC(=O)C(CC(N)=O)NC(=O)OCc1ccccc1 (stereo not drawn) (Cbz-Asn-Cys(Trt)-OMe; configuration not given here) ?
Response given: inactive

Challenge: What was the test verdict on O=C1c2ccccc2C(=O)N1c1ccccc1 ?
Response given: inactive

---

Test system: HOP-62 NSCLC
protocol_details: NCI-60 one-dose screen, 48 h (100 = growth as untreated, 0 = no growth, -100 = all killed)
measurement_conditions: 100 µM
The panel holds about 83,000 compounds, 20% with a hit somewhere; the sample as a whole holds those more often. Calls of active or inactive are those of the source. Rule for the calls: active = growth percent below 10; inactive = the rest.
measurement_label: growth

# smiles_structure, measured_target, growth
records = [
    ("CN(C)C(=O)c1ccc(SC(=S)NCc2ccccc2)cc1", "HOP-62 NSCLC", "46.5% (inactive)"),
]

Challenge: Read off the recorded growth for COc1ccc(-c2cscc2N)cc1
Response given: 57.6% (inactive)

Challenge: Read off the recorded growth for O=C(O)c1c(Cl)c(Cl)c(Cl)c(Cl)c1-c1c2cc(I)c(=O)c(I)c-2oc2c(I)c(O)c(I)cc12
Response given: -66.5% (active)

Challenge: Read off the recorded growth for O=C(Nc1cccc(Br)c1)Oc1cccc2cccnc12
Response given: 50.1% (inactive)

---

Test system: HS 578T breast
protocol_details: NCI-60 one-dose screen, 48 h (100 = growth as untreated, 0 = no growth, -100 = all killed)
measurement_conditions: 10 µM
The panel holds about 83,000 compounds, 20% with a hit somewhere; the sample as a whole holds those more often.
Below is a list of entries, each paired with its recorded growth value.
Reply with just the number (in %).

In the examples that follow, each entry is paired with its recorded growth.
# smiles_structure, measured_target, growth [%]
data = [
    ("COc1ccc(-c2cscc2N)cc1", "HS 578T breast", 106),
    ("O=C(Nc1c(Cl)cccc1Cl)Oc1cccc2cccnc12", "HS 578T breast", 90.6),
    ("O=C(Nc1cccc(Br)c1)Oc1cccc2cccnc12", "HS 578T breast", 110),
]

Here is another molecule to look at.
Challenge: Read off the recorded growth for CN(C)C(=O)c1ccc(SC(=S)NCc2ccccc2)cc1
Response given: 116
